# targetOfAssay: T1, recombinant extracellular domain of the predominant human CD22-beta isoform (CD22-ECD) (human, UniProt P20273 20-687, CHO-expressed glycoprotein. Capture on an SA chip implies biotinylation, but the patent does not state it for SPR.)
# T1 construct: Expressed in CHO-3E7 cells, IMAC and SEC purified, monomeric fraction; Results say it was immobilized onto a CM5 dextran chip; also called human CD22-ECD; hCD22 ecto-domain
# T1 sequence: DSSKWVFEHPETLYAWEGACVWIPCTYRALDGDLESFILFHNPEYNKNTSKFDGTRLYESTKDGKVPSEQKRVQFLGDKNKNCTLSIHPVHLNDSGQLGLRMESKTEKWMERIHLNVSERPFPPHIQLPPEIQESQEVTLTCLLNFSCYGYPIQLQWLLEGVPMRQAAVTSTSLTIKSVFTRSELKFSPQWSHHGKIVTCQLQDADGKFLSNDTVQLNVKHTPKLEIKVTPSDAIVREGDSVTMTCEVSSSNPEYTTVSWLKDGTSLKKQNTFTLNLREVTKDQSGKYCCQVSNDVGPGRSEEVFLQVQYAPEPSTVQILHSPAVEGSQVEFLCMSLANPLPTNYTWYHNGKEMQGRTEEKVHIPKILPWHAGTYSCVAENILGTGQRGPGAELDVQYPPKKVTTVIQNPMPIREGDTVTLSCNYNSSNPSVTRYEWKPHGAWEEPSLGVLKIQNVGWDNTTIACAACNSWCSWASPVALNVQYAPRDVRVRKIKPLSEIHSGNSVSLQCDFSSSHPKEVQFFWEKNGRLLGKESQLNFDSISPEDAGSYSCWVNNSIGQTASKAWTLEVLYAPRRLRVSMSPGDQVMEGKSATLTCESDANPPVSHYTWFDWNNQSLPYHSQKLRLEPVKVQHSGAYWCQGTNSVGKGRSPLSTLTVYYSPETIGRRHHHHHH
# experimentSummary: SPR, Biacore T200, VHH over immobilized CD22-ECD
# Experimental: For surface Plasmon resonance, 21 selected VHHs were passed though size exclusion columns, superdex 75 (GE Healthcare), respectively, in 10 mM HEPES, pH 7.4, containing 150 mM NaCl, 3 mM EDTA, monomeric sdAb fractions were collected and protein concentrations were determined by measuring absorbance at 280 nm (A280). Analysis were performed with Biacore T200 instrument (GE Healthcare). […] Data were analysed with BIAevaluation 4.1 software. […]
pKd: −log10 of the molar value.
# label = y if pKd >= 8 else n

Query :: Does hCD221ug-13 (VHH, single biotin at the VHH C-terminal (biotinylation signal sequence), llama VHH, expressed in E. coli TG1, IMAC purified, monomeric SEC fraction; also called VHH # 21; 1-hCD22 1ug-13) VHH: QVQLVESGGGLVQAGDSLRLSCAGSGGSFSSVTMAWFRQAPGKDREFVAAITWSSPSTYYADSVKGRFTISRDNAKNTVYLQMNSLKPEDTAVYYCAGGRTGRGTSADTDEYNYWGQGTQVTVSS have a reported pKd of at least 8?
Result :: y

Query :: hey, is pKd for this one >= 8? hCD22pas-10 (VHH, single biotin at the VHH C-terminal (biotinylation signal sequence), llama VHH, expressed in E. coli TG1, IMAC purified, monomeric SEC fraction; also called VHH # 6) VHH: QVQLVESGGGLVQPGDSLRLSCTVSGFTSDYYAMGWFRQAPGKEREAVSCISSSDGVTYYADSVRGRFTISRDNAKNTVYLEMNSLKPEDTAIYYCAVDKPFYDGGYLYTCPVDFDSWGQGTQVTVSS
Result :: n

Query :: // inclusive: pKd at least 8? input: hCD221ug-10 (VHH, single biotin at the VHH C-terminal (biotinylation signal sequence), llama VHH, expressed in E. coli TG1, IMAC purified, monomeric SEC fraction; also called VHH # 23; 5-hCD22 1ug-10) VHH: QVQLVESGGGLVQAGGSLSVSCTASESTFSIMMGWFRQAPGKQREMVAVINSAGSTNYADSAEGRFTISRDLAKKTVSLQMNSLKPEDTAVYYCYVDGYFGQGTQVTVSS
Result :: y

Query :: Given the entry hCD221ug-80 (VHH, single biotin at the VHH C-terminal (biotinylation signal sequence), llama VHH, expressed in E. coli TG1, IMAC purified, monomeric SEC fraction; also called VHH # 1; 2-hCD22 1ug-80) VHH: QVQLVESGGGLVQPGGSLRLSCTFSGFTLDYYVMVWFRQAPGKEREAVSCITSDGVTYYADSVKGRFTISRDNAKNTVYLQMNRVKPEDTAVYYCAVDKPFYDGGIQYTCPVDFDSWGQGAQVTVSS , answer whether its pKd meets or surpasses 8.
Result :: n

Query :: // inclusive: pKd at least 8? input: hCD221ug-75 (VHH, single biotin at the VHH C-terminal (biotinylation signal sequence), llama VHH, expressed in E. coli TG1, IMAC purified, monomeric SEC fraction; also called VHH # 10) VHH: QVKLEESGGGLVQPGGSLRLSCAGSGSIFRIAVMNWYRQAPGKERELVAVITSGGDTHYAASVKGRFTISRDNAKNTMYLQINSLKPEDTAVYYCNAKYGRDEYWGQGAQVTVSS
Result :: y

Query :: Form field: pKd at least 8? Entry: hCD221ug-77 (VHH, single biotin at the VHH C-terminal (biotinylation signal sequence), llama VHH, expressed in E. coli TG1, IMAC purified, monomeric SEC fraction; also called VHH # 8) VHH: QVKLEESGGGLVQPGGSLRLSCADSGSIFRIAVMNWYRQAPGKERELVAVITSGGETHYAASVKGRFTISRDNAKNTMYLQMNSLKPEDTAVYYCNAKWGQYEYWGQGTQVTVSS
Result :: y
